B1: ZNF263 (parent)
chain: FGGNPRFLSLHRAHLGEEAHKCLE

Variants of: B1
method-notes: protein stability index of a GFP-peptide fusion (GPS, HEK-293T) (PSI 1-6); higher = more stable;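 further: lentivirally expressed fusions sorted by FACS into six bins by GFP to DsRed ratio, PSI derived from sequencing read proportions per bin multiplied by bin number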
test-parameters: c terminus: a fixed tail appended
measurement-name: protein stability index

{"mutation-string": "F1W", "measurement-name": "protein stability index", "reading": 1.99}
{"mutation-string": "K21C", "measurement-name": "protein stability index", "reading": 1.98}
{"mutation-string": "L23E", "measurement-name": "protein stability index", "reading": 1.97}
{"mutation-string": "P5R", "measurement-name": "protein stability index", "reading": 2.01}
